Molecular target: T1, schistosome legumain SmAE (Schistosoma mansoni asparaginyl endopeptidase) (Schistosoma mansoni), P09841
T1 chain: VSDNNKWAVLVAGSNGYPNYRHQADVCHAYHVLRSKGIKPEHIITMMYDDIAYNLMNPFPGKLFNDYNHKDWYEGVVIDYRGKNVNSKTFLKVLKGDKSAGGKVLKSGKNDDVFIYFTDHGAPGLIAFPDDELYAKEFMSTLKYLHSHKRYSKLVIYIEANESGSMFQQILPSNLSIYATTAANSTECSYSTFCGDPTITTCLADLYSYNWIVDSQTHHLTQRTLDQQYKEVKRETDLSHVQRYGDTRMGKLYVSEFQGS
Assay: cell-based or functional assay
Square brackets hold non-standard residues; d marks the D form. * marks the point of attachment. Cbz = O=C(OCc1ccccc1)*
Below: a set of entries, each annotated with reported IC50.

Answered examples (3):
Binder: Cbz-Ala-Ala-[AAsn]-{CH:CH‑CO‑indoline} [Cbz-Ala-Ala-AAsn-CH═CH-CO-indoline]
IC50: 70 nM
--
Binder: AAN (modifications not checked) [Cbz-Ala-Ala-AAsn-CH═CH-CON(Bzl-4-F)Bzl]
IC50: 60 nM
--
Binder: AAN (modifications not checked) [Cbz-Ala-Ala-AAsn-CH═CH-CO-tetrahydroquinoline]
IC50: 70 nM

Now consider the entry below.
Give IC50 for the following binder: AAN (modifications not checked) [Cbz-Ala-Ala-AAsn-CH═CH-CONHBzl]
1000 nM

Numbers sourced from patent US20050256058A1.
